Assignment: determine reported TGI for the given compounds.
Tested on: NCI-H23 lung
Assay protocol: NCI tumour cell line growth inhibition, 48 h

Here's what some known entries look like.
{"Compound": "C[S+](C)CC1OC(n2cnc3c(N)ncnc32)C(O)C1O (configuration not stated)", "Subject of test": "NCI-H23 lung", "TGI": "> 225 µM"}
{"Compound": "C[Si](C)(C)C(CCCCSc1ccccc1)(Sc1ccccc1)Sc1ccccc1", "Subject of test": "NCI-H23 lung", "TGI": "> 100 µM"}

Give TGI for each listed item.
1. O=C(O)/C=C\C(=O)Nc1ccccn1
2. COc1ccc(C2OCCN2C)cc1 (configuration not stated)
3. O=S(=O)(c1ccc(-c2nnc(-c3ccc(F)cc3)o2)cc1)c1ccc(-c2nnc(-c3ccc(F)cc3)o2)cc1
4. CCCCCCCC(=O)OCCCC1[C@]2(C)CC[C@@]3(C)C([C@H](C)CCC=C(C)C)CC[C@]3(C)C2CC[C@]12OC2(C)C (some centres not stated)

[out]
> 100 µM
> 100 µM
> 100 µM
61.7 µM

* * *

Tested on: OVCAR-4 ovarian
Assay protocol: NCI tumour cell line growth inhibition, 48 h
Property: TGI

Here's what some known entries look like.
{"Compound": "CN(C)/C=N\\c1ccnc(=O)[nH]1", "TGI": "> 100 µM"}
{"Compound": "Cn1c([C@H](C#N)C(=O)c2cc(O)ccc2[N+](=O)[O-])nc2ccccc21", "TGI": "> 100 µM"}
{"Compound": "COc1cc2ncnc(-n3ncc4cc(NC(=O)Nc5ccc(Cl)c(Cl)c5)ccc43)c2cc1OC", "TGI": "3.89 µM"}

Give TGI for each listed item.
1. Cc1ccc(NC2=NCCO2)c2c1CCC2
2. COC(=O)C(CCC(=O)CCl)N1C(=O)c2ccccc2C1=O (stereo unspecified)

[out]
1. > 100 µM
2. 27.4 µM

[in] Given the compound Cl/C(N=Nc1ccccc1)=N/Nc1ccccc1 , what is its reported TGI?
[out] > 100 µM

* * *

Assignment: determine reported TGI for the given molecules.
Tested on: MALME-3M melanoma
Assay protocol: NCI tumour cell line growth inhibition, 48 h
Where a SMILES comes first, the peptide text is derived from it. The star is where a group is joined. Boc = CC(C)(C)OC(=O)*; OBn = c1ccc(CO*)cc1

Here's what some known entries look like.
{"Molecule": "C=C1[C@@](C)([C@@H]2CCCS2)[C@H]2C(C)=C[C@]1(C)n1c(=O)n(-c3ccccc3)c(=O)n12", "Property": "TGI", "Experimental value": "> 100 µM"}
{"Molecule": "CC(C)CC(NC(=O)OC(C)(C)C)C(=O)NC(CC(=O)OCc1ccccc1)C(=O)OCc1ccccc1 (stereo not drawn) (Boc-Leu-Asp(OBn)-OBn; configuration not given here)", "Property": "TGI", "Experimental value": "> 100 µM"}
{"Molecule": "COc1ccc2c(c1OC)-c1c(c3ccc([N+](=O)[O-])cc3c(=O)n1CCCBr)C2=O", "Property": "TGI", "Experimental value": "> 100 µM"}
{"Molecule": "O=C(O)c1cc(=O)c2c([nH]c3ccccc32)s1", "Property": "TGI", "Experimental value": "> 100 µM"}
{"Molecule": "Cc1cc(Nc2nc(C(=O)Nc3ccccc3)nc3ccccc23)n[nH]1", "Property": "TGI", "Experimental value": "> 25 µM"}

Give TGI for each listed item.
1. CC1(C)CC2(C)CC1CC2(O)c1ccccc1 (centres undefined)
2. CCc1cccc(C)c1N1C(=O)C(=O)C(c2nc3ccccc3o2)C(=O)C1=O

[out]
> 100 µM
> 100 µM

Give TGI for each listed item.
1. CN(C)c1nc(=NCc2ccco2)ss1
2. COc1cc(C2C(Cl)C(=O)N2NC(=O)c2ccc(NC(C)=O)cc2)ccc1O (centres undefined)

[out]
1: 54 µM; 2: > 100 µM
